assay: Clearance in C57BL/6 mouse at 2 mg/kg, iv; assay type: ADME, organism-based; settings: in vivo
metric: clearance (mL/min/kg)
Report the value in mL/min/kg with no unit label.

Look at this molecule and give its reported clearance. CC(C)(O)CNc1ncc(-c2ccnc(Nc3ccncc3)n2)c(CC2CC2)n1
30

---

target: Phosphatidylinositol 3-kinase catalytic subunit type 3 (Homo sapiens, UniProt Q8NEB9); assay: Inhibition of VPS34 in human U2OS cells incubated for 2 hrs by GFP-FYVE reporter gene assay; type: cell-based
Sequence (Q8NEB9 whole entry): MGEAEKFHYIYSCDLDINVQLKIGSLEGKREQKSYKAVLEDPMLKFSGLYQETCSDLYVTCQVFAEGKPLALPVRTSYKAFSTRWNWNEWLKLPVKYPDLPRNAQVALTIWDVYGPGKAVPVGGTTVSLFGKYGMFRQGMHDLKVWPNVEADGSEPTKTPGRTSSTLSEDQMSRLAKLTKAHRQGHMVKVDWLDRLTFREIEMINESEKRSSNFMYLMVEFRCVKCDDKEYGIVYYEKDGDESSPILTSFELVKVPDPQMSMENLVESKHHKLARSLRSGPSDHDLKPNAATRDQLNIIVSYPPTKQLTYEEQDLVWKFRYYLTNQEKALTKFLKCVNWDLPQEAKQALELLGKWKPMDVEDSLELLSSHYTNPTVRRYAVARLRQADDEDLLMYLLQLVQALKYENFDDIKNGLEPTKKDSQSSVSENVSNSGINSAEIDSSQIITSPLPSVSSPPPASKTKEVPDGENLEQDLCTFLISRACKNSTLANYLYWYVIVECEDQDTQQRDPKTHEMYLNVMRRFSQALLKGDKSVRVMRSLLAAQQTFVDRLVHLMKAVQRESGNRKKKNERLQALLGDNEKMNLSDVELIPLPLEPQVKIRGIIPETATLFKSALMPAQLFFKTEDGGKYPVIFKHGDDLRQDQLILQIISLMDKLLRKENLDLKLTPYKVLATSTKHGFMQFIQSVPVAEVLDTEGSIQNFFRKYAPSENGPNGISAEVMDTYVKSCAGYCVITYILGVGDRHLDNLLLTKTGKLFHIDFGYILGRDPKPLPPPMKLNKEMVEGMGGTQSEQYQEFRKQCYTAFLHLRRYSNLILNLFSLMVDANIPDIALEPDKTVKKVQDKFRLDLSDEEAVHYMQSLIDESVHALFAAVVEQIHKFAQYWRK
metric: IC50 (nM)
Please state the figure in nM; there is no need to write the unit.

Some compounds with recorded IC50:
>>> observed_measurement("c1cc(Nc2nccc(-c3cncnc3CC3CC3)n2)ccn1")
330
>>> observed_measurement("CNc1ncc(-c2ccnc(Nc3ccncc3)n2)c(CC2CC2)n1")
14

Entry under review: CC(C)(O)CNc1ncc(-c2ccnc(Nc3ccncc3)n2)c(CC2CC2)n1 . Reported IC50?
25

So what does the record say about IC50 for c1cc(Nc2nccc(-c3cnc(NC4CCOCC4)nc3CC3CC3)n2)ccn1 ?
270

---

assay: Cmax in C57BL/6 mouse at 10 mg/kg, po; assay type: ADME, organism-based; set-up: dose 10 mg/kg, route oral; settings: in vivo
metric: Cmax
Note to self: number, then unit, no commentary.

Any idea what Cmax was measured for CC(C)(O)CNc1ncc(-c2ccnc(Nc3ccncc3)n2)c(CC2CC2)n1 ?
2990 nM

---

biological target: Phosphatidylinositol 4,5-bisphosphate 3-kinase catalytic subunit beta isoform (Homo sapiens); test: Inhibition of PI3Kbeta (unknown origin)
pIC50: −log10 of the molar value.
metric: pIC50

>>> observed_measurement("CNc1ncc(-c2ccnc(Nc3ccncc3)n2)c(CC2CC2)n1")
"< 5.04"

Turning now to a further record.
Sample CNc1ncc(-c2ccnc(N[C@H]3CC[C@H](O)CC3)n2)c(CC2CC2)n1 — what was its pIC50?
< 5.04

---

Reported IC50 is given for each of the following molecules.
target: Phosphatidylinositol 4,5-bisphosphate 3-kinase catalytic subunit delta isoform (Homo sapiens, UniProt O00329); experiment: Inhibition of PI3Kdelta (unknown origin)
Sequence (O00329 whole entry, canonical isoform): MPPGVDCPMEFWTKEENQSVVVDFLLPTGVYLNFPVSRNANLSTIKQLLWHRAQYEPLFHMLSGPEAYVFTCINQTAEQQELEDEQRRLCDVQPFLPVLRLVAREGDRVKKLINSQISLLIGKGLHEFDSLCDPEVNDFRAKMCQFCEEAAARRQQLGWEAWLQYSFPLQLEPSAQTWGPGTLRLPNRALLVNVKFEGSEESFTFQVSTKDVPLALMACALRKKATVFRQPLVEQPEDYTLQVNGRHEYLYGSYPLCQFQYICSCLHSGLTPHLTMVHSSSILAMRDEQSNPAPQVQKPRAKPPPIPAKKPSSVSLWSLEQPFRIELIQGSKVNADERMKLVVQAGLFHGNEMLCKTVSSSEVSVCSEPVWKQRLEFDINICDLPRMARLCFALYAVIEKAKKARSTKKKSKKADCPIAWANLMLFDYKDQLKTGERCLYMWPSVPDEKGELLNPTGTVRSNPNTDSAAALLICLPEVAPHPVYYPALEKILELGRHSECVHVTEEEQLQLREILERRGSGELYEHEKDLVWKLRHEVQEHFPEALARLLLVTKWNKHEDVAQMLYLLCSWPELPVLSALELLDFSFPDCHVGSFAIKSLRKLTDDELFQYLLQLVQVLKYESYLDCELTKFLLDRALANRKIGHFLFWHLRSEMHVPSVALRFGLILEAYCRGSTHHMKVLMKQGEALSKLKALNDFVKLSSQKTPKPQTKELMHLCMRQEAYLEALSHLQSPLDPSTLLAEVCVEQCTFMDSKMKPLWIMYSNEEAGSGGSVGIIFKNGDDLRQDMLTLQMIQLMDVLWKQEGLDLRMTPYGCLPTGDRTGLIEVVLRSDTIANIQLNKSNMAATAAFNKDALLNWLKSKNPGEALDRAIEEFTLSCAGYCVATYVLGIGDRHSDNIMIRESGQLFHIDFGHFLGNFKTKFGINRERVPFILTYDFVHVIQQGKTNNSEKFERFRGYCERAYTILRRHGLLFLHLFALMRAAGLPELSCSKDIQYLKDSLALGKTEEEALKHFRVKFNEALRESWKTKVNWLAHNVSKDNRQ
Response body: numeric value in µM, unit text excluded.

>>> observed_measurement("c1cc(Nc2nccc(-c3cnc(NC4CCOCC4)nc3CC3CC3)n2)ccn1")
4.2
>>> observed_measurement("COc1ncc(-c2ccnc(Nc3ccncc3)n2)c(CC2CC2)n1")
8.5

Then this molecule:
Find the recorded IC50 belonging to CC(C)(C)CNc1ncc(-c2ccnc(Nc3ccncc3)n2)c(CC2CC2)n1 and report it.
0.5

---

target: Phosphatidylinositol 4-kinase beta (Homo sapiens)
Sequence (Q9UBF8 whole entry): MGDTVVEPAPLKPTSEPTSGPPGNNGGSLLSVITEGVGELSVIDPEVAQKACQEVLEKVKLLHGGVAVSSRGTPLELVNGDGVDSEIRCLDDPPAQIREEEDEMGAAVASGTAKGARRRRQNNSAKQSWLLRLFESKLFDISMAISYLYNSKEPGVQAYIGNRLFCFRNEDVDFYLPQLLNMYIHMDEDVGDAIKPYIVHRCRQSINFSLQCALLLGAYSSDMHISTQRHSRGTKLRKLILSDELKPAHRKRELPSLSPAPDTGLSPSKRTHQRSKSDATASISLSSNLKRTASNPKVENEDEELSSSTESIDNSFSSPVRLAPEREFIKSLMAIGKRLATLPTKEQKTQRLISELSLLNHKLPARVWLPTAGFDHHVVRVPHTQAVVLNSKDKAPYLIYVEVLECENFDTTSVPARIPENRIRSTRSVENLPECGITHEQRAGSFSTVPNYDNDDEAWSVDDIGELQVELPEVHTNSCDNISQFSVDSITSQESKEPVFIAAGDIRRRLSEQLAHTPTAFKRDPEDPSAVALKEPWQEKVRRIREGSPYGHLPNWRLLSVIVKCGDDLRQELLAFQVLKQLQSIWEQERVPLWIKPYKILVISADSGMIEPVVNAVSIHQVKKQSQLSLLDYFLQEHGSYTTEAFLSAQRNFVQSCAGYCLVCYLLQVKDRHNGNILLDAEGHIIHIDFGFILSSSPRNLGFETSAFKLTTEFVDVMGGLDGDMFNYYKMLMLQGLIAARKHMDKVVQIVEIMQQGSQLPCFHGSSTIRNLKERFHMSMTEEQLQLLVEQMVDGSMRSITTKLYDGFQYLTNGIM
metric: pIC50
Please express pIC50 as -log10 of the molar concentration.

What is its pIC50 for Phosphatidylinositol 4-kinase beta (Homo sapiens)? Entry: CNc1ncc(-c2ccnc(N[C@H]3CC[C@H](O)CC3)n2)c(CC2CC2)n1
5.42

---

experiment: AUC (0 to infinity) in C57BL/6 mouse at 10 mg/kg, po; assay type: ADME, organism-based; parameters: dose 10 mg/kg, route oral, time infinity; conditions: in vivo
metric: AUC(0-inf) (µM·h)
Please reply with the bare figure in µM·h and do not write the unit itself.

Need AUC(0-inf) of CC(C)(O)CNc1ncc(-c2ccnc(Nc3ccncc3)n2)c(CC2CC2)n1 , thanks.
6.73

---

experiment: Systemic clearance in C57BL/6 mouse at 10 mg/kg, po; assay type: ADME, organism-based; details: in vivo
metric: CL/F

I am curious: what CL/F value has been reported for CC(C)(O)CNc1ncc(-c2ccnc(Nc3ccncc3)n2)c(CC2CC2)n1 ?
30 mL/min/kg

---

molecular target: Phosphatidylinositol 4,5-bisphosphate 3-kinase catalytic subunit delta isoform (Homo sapiens); experiment: Inhibition of PI3Kdelta (unknown origin)
Friendly reminder: IC50 below 3 µM is class 1, at or above is class 0.

Answered examples (5):
>>> category("CC(C)(O)CNc1ncc(-c2ccnc(Nc3ccncc3)n2)c(CC2CC2)n1")
"class 1"
>>> category("CNc1ncc(-c2ccnc(Nc3ccncc3)n2)c(CC2CC2)n1")
"class 1"
>>> category("c1cc(Nc2nccc(-c3cncnc3CC3CC3)n2)ccn1")
"class 0"
>>> category("CNc1ncc(-c2ccnc(N[C@H]3CC[C@H](O)CC3)n2)c(CC2CC2)n1")
"class 0"
>>> category("CC(C)(C)Nc1ncc(-c2ccnc(Nc3ccncc3)n2)c(CC2CC2)n1")
"class 1"

Please look at the following compound next.
Strictly below 3 µM: is that where IC50 of c1ccc(CNc2ncc(-c3ccnc(Nc4ccncc4)n3)c(CC3CC3)n2)cc1 sits?
class 0

---

biological target: Phosphatidylinositol 3-kinase catalytic subunit type 3 (Homo sapiens); experiment: Inhibition of recombinant human VPS34 using L-alpha-phosphatidylinositol as substrate incubated for 10 mins by luminescence based ATP detection assay
metric: pIC50
Bear in mind: pIC50 is minus log10 of a mol/L concentration; give just that figure.

>>> observed_measurement("CNc1ncc(-c2ccnc(N[C@H]3CC[C@H](N)CC3)n2)c(CC2CC2)n1")
6.39

For the molecule shown here, c1cc(Nc2nccc(-c3cnc(NC4CCOCC4)nc3CC3CC3)n2)ccn1 , give the reported pIC50.
6.62

Which pIC50 is reported for this molecule? CNc1ncc(-c2ccnc(Nc3ccccc3)n2)c(CC2CC2)n1
6.54

Can you look up the measured pIC50 of CNc1ncc(-c2ccnc(NCCCO)n2)c(CC2CC2)n1 for me?
5.20

---

# IC50 values compiled below
biological target: Phosphatidylinositol 4,5-bisphosphate 3-kinase catalytic subunit alpha isoform (Homo sapiens, UniProt P42336); experiment: Inhibition of PI3Kalpha (unknown origin)
Sequence (P42336 whole entry, canonical isoform): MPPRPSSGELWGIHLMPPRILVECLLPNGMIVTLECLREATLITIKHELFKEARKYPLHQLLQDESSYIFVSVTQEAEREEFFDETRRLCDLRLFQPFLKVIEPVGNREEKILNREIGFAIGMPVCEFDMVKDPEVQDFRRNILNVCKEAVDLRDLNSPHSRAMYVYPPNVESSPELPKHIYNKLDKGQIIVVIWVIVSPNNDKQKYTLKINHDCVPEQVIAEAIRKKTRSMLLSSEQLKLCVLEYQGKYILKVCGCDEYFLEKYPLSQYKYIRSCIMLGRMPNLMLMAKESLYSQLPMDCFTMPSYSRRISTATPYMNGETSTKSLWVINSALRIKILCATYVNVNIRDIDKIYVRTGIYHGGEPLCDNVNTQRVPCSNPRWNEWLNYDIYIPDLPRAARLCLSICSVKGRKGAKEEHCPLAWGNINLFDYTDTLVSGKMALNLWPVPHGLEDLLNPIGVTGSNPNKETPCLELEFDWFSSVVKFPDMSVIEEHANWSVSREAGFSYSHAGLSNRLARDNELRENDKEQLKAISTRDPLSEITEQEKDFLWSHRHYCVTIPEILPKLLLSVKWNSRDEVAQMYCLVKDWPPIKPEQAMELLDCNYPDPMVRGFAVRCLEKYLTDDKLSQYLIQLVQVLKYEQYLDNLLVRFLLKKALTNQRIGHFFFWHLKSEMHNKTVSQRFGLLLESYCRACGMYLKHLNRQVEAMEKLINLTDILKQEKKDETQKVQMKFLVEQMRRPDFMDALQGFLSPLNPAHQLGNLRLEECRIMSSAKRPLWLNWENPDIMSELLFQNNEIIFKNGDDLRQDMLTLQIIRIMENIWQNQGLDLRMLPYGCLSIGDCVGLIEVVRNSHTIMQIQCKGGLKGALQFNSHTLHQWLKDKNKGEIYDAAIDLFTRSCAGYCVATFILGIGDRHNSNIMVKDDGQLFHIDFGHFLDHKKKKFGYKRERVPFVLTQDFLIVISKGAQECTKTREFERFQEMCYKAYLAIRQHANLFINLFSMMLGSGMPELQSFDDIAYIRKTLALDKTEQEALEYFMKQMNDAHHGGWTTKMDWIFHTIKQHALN
Number in µM, nothing else.

>>> observed_measurement("CNc1ncc(-c2ccnc(N[C@H]3CC[C@H](O)CC3)n2)c(CC2CC2)n1")
6.2

Turning to the following molecule.
Which measured IC50 value corresponds to CNc1ncc(-c2ccnc(Nc3ccncc3)n2)c(CC2CC2)n1 ?
6.8

---

assay: Volume of distribution at steady state in C57BL/6 mouse at 2 mg/kg, iv; type: ADME, organism-based; conditions: in vivo, read-out: Vdss
metric: Vd

Given CC(C)(O)CNc1ncc(-c2ccnc(Nc3ccncc3)n2)c(CC2CC2)n1 , state its recorded Vd.
1.5 L/kg

---

test: Oral bioavailability in C57BL/6 mouse at 10 mg/kg; assay type: ADME, organism-based; conditions: in vivo
metric: bioavailability (%)
State the answer as a number, implicitly in %.

Quick one: bioavailability of CC(C)(O)CNc1ncc(-c2ccnc(Nc3ccncc3)n2)c(CC2CC2)n1 ?
47

---

test: Intrinsic clearance in mouse liver microsomes by LC-MS/MS analysis; assay type: ADME; details: read-out: CLH
metric: CLint scaled (L/h/kg)
Supply the numeric figure in L/h/kg, leaving out any unit text.

Before answering, review these 8 worked examples.
>>> observed_measurement("CNc1ncc(-c2ccnc(Nc3ccncc3)n2)c(CC2CC2)n1")
5.2
>>> observed_measurement("CC(C)(C)Nc1ncc(-c2ccnc(Nc3ccncc3)n2)c(CC2CC2)n1")
5.13
>>> observed_measurement("c1cc(Nc2nccc(-c3cncnc3CC3CC3)n2)ccn1")
4.19
>>> observed_measurement("CC(C)(C)CNc1ncc(-c2ccnc(Nc3ccncc3)n2)c(CC2CC2)n1")
4.02
>>> observed_measurement("c1ccc(CNc2ncc(-c3ccnc(Nc4ccncc4)n3)c(CC3CC3)n2)cc1")
4.49
>>> observed_measurement("COc1ncc(-c2ccnc(Nc3ccncc3)n2)c(CC2CC2)n1")
5.08
>>> observed_measurement("Nc1ncc(-c2ccnc(Nc3ccncc3)n2)c(CC2CC2)n1")
4.37
>>> observed_measurement("CC(C)(O)CNc1ncc(-c2ccnc(Nc3ccncc3)n2)c(CC2CC2)n1")
3.79

# get_value(readout='CLint scaled', item= CNc1ncc(-c2ccnc(N[C@H]3CC[C@H](O)CC3)n2)c(CC2CC2)n1 )
4.96

Data request, read-out CLint scaled, for c1cc(Nc2nccc(-c3cnc(NC4CCOCC4)nc3CC3CC3)n2)ccn1
3.95

---

molecular target: Phosphatidylinositol 4,5-bisphosphate 3-kinase catalytic subunit gamma isoform (Homo sapiens); assay: Inhibition of PI3Kgamma (unknown origin)
Sequence (P48736 whole entry, canonical isoform): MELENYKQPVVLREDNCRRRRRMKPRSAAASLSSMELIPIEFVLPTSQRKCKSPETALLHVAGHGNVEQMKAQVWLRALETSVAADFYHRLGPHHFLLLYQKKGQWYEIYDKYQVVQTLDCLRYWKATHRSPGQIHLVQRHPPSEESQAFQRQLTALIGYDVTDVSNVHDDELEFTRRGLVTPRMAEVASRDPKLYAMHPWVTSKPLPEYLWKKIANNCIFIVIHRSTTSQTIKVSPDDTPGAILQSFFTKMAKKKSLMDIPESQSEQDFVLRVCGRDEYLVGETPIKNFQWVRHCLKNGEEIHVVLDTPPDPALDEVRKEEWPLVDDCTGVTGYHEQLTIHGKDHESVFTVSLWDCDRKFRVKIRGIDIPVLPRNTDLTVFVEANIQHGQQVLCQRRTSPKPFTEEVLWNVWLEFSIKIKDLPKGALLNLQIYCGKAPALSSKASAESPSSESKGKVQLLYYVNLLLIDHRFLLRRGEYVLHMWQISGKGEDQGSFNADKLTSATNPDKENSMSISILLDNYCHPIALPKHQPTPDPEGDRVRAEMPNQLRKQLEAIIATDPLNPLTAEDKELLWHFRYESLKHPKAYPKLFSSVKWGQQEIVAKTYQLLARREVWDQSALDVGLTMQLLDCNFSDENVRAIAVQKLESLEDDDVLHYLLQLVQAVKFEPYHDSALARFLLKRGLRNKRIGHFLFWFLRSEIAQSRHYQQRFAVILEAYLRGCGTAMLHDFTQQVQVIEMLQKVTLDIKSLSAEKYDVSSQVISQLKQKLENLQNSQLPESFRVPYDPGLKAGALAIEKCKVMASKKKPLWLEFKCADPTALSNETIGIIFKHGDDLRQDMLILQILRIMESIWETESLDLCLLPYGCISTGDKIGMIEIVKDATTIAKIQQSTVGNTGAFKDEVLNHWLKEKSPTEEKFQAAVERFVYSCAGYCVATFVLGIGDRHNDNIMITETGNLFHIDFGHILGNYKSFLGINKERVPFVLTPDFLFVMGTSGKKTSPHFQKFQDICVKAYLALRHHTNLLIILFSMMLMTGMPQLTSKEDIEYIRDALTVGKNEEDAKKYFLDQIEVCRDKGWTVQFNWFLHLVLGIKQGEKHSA
metric: IC50
Provide the measurement as a number trailed by its unit.

>>> observed_measurement("CNc1ncc(-c2ccnc(Nc3ccncc3)n2)c(CC2CC2)n1")
"1.9 µM"

Bench note: what IC50 did CNc1ncc(-c2ccnc(N[C@H]3CC[C@H](O)CC3)n2)c(CC2CC2)n1 show?
8.5 µM

---

assay: Tmax in C57BL/6 mouse at 10 mg/kg, po; format: ADME, organism-based; conditions: in vivo
metric: Tmax (min)
Quick note: give the figure in min, leave out the unit.

// query Tmax value for entry CC(C)(O)CNc1ncc(-c2ccnc(Nc3ccncc3)n2)c(CC2CC2)n1
42

---

molecular target: Phosphatidylinositol 3-kinase catalytic subunit type 3 (Homo sapiens); assay: Inhibition of recombinant human VPS34 using L-alpha-phosphatidylinositol as substrate incubated for 10 mins by luminescence based ATP detection assay
metric: IC50 (µM)
Could you give me the number in µM? Just the number is fine.

// solved cases for IC50 follow
>>> observed_measurement("CNc1ncc(-c2ccnc(NC3CCCCC3)n2)c(CC2CC2)n1")
3.4
>>> observed_measurement("c1cc(Nc2nccc(-c3cncnc3CC3CC3)n2)ccn1")
0.21

Let us examine a further case.
What value of IC50 on Phosphatidylinositol 3-kinase catalytic subunit type 3 (Homo sapiens) does CNc1ncc(-c2ccnc(Nc3cnc4ccccc4c3)n2)c(CC2CC2)n1 have?
0.13
